Experiment: Half life in Wistar rat plasma at 0.015 mg/kg, it administered as solution
Format: ADME, organism-based
Details: inhaled or intranasal
Here, each record is paired with measured half-life data.
MEASURED ATTRIBUTE: half-life (h)

>>> value_reported("Cc1ccn2nc([C@H](C)Nc3ncnc(N)c3-c3ccc(O)c(F)c3)n(-c3ccccc3)c(=O)c12")
0.7
>>> value_reported("Cc1ccn2nc([C@H](C)Nc3ncnc4[nH]cc(-c5cc(NS(C)(=O)=O)cc6[nH]ccc56)c34)n(-c3ccccc3)c(=O)c12")
3.2

###

Biological target: PI3-kinase p110-alpha/p85-alpha (Homo sapiens)
Sequence (P27986 whole entry): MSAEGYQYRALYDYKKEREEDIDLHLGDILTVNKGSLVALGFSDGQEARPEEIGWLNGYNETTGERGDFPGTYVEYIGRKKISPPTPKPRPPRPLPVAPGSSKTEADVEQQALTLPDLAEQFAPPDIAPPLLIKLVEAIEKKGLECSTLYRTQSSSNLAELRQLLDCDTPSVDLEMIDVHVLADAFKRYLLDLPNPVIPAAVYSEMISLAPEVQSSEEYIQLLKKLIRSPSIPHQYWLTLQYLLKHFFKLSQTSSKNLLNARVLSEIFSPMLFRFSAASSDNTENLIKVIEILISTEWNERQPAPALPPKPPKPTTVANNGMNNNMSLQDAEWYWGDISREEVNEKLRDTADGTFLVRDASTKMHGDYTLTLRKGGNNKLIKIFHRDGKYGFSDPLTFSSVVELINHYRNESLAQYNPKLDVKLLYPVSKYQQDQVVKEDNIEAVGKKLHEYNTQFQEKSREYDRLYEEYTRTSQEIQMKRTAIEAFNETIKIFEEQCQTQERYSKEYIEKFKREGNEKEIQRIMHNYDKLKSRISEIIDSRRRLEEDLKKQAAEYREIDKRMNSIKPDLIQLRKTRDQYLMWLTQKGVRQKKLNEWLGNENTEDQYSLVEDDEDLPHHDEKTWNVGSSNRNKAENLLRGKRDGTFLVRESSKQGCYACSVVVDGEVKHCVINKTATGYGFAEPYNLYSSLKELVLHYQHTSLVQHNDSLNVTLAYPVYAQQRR
Sequence (P42336 whole entry): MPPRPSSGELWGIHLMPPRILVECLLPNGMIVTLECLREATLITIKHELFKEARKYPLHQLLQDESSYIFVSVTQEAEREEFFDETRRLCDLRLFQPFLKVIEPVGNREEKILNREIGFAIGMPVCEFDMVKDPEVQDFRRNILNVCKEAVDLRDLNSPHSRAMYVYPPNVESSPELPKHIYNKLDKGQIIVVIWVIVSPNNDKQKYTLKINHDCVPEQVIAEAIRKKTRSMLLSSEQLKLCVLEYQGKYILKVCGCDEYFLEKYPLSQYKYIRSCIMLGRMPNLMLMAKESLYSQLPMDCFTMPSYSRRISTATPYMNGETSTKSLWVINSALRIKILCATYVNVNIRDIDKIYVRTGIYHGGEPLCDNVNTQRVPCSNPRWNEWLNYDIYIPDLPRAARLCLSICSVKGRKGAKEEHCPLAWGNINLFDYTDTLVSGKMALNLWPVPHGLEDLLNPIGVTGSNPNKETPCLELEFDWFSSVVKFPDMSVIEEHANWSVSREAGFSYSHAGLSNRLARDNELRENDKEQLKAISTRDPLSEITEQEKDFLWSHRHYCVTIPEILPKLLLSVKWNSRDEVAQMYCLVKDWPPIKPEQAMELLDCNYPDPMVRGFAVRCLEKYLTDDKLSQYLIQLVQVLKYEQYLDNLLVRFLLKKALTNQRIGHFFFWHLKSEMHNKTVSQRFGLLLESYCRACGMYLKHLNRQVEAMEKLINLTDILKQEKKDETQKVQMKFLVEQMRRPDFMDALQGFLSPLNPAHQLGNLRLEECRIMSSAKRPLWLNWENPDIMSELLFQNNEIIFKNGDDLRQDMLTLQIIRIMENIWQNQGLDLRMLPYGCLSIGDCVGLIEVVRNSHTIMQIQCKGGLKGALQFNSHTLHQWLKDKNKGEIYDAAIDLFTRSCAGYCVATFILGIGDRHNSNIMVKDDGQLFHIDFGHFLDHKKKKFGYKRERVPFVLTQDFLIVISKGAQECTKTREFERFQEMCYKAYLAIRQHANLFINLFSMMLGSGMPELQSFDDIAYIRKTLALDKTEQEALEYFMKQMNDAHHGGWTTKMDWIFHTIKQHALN
MEASURED ATTRIBUTE: log10(IC50) (log10 of the value in nM)

>>> value_reported("Cc1ccn2nc([C@H](C)Nc3ncnc(N)c3Cc3cccc(O)c3)n(-c3ccccc3)c(=O)c12")
3.82
>>> value_reported("Cc1ccn2nc([C@H](C)Nc3ncnc4[nH]cc(-c5cc(O)cc(F)c5)c34)n(-c3ccccc3)c(=O)c12")
0.95
>>> value_reported("Cc1ccn2nc([C@H](C)Nc3ncnc4[nH]cc(Sc5cccc(O)c5)c34)n(-c3ccccc3)c(=O)c12")
2.89
>>> value_reported("Cc1ccn2nc([C@H](C)Nc3ncnc(N)c3Sc3cccc(O)c3)n(-c3ccccc3)c(=O)c12")
3.92
>>> value_reported("Cc1ccn2nc([C@H](C)Nc3ncnc(N)c3-c3cccc(NS(C)(=O)=O)c3)n(-c3ccccc3)c(=O)c12")
2.86
>>> value_reported("Cc1ccn2nc([C@H](C)Nc3ncnc(N)c3-c3cc(O)cc(F)c3)n(-c3ccccc3)c(=O)c12")
3.28
>>> value_reported("COc1cc(-c2c[nH]c3ncnc(N[C@@H](C)c4nn5ccc(C)c5c(=O)n4-c4ccccc4)c23)ccc1O")
0.08
>>> value_reported("Cc1ccn2nc([C@H](C)Nc3ncnc(N)c3C(=O)Nc3cccc(O)c3)n(-c3ccccc3)c(=O)c12")
3.15
>>> value_reported("Cc1ccn2nc([C@H](C)Nc3ncnc(N)c3-c3cc(O)cc(Cl)c3)n(-c3ccccc3)c(=O)c12")
2.75
